Consider the following compounds; for each one, report its IC50.
- target: Large T antigen (Simian virus 40)
- Sequence (P03070 whole entry): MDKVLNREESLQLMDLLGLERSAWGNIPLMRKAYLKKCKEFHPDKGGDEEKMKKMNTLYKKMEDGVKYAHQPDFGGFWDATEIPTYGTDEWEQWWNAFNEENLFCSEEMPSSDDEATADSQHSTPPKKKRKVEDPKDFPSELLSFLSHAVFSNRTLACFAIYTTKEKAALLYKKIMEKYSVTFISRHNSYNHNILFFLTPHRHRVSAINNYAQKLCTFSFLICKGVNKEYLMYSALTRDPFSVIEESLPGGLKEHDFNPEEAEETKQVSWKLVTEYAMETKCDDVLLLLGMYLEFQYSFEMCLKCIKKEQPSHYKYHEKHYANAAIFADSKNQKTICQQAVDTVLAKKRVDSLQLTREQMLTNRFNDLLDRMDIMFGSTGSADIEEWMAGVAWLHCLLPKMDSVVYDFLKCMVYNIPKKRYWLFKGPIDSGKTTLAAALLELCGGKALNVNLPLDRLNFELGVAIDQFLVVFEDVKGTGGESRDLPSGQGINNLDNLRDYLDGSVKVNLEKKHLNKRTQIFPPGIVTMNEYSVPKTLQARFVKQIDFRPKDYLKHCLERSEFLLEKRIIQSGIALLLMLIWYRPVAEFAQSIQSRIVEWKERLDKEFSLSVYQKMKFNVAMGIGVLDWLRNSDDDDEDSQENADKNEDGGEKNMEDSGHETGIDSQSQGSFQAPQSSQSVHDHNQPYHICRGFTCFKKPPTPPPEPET
- Type: functional, Betapolyomavirus macacae
The source made the active and inactive calls.

Ask: Consider the compound COc1cc(-c2n[nH]c(=S)[nH]2)cc(OC)c1OC and give its measured IC50.
Result: 8.6 µM (active)

Ask: Now give it for CC(=O)c1cc2c(O)c(O)ccc2o1 too.
Result: 18.5 µM (active)

Ask: Now give it for CCN(CC)c1ccc(NC(=O)CSc2nc3nc(C)cc(C)c3c(=O)[nH]2)cc1 too.
Result: 10.2 µM (active)

Ask: Now give it for CCc1cc2c(Nc3ccc(O)cc3)nc(C)nc2s1 too.
Result: 23.7 µM (active)

Ask: Now give it for COc1ccc(Nc2ccc(Cl)cc2)c(C(=O)O)c1 too.
Result: 18 µM (active)

Ask: Now give it for CCOc1c(Br)cc(CNc2ccc(N3CCN(C(C)=O)CC3)cc2)cc1OC too.
Result: 6.23 µM (active)

====

Consider the following compounds; for each one, report its IC50.
- target: Large T antigen (Simian virus 40);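 also: Confirmatory-stage PubChem screen for compounds that inhibit SV40 T antigen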
- Type: functional, Betapolyomavirus macacae
Activity calls are given as the source filed them.

Ask: Consider the compound CN(C)c1ccc(NC2=C([N+](=O)[O-])CS(=O)(=O)C2)cc1 and give its measured IC50.
Result: 5.71 µM (active)

Ask: Now give it for O=C1Nc2ccccc2/C1=N/N=C/c1ccc(O)c(O)c1 too.
Result: 3.29 µM (active)

Ask: Now give it for CC1=C(C(=O)c2ccccc2)C(c2ccc(O)cc2)NC(S)=N1 (stereo not drawn) too.
Result: > 100 µM (active)

====

- target: Nonstructural protein 1 (Influenza A virus, UniProt Q194T2)
- Sequence (Q194T2 whole entry): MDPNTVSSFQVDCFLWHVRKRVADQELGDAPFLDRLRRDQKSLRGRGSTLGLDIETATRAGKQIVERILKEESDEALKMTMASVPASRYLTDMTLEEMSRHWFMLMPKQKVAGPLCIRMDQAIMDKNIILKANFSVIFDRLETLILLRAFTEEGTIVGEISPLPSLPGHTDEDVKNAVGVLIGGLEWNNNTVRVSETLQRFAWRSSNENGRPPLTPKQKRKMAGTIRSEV
- Type: functional, Influenza A virus (A/California/07/2009(H1N1))
Calls of active or inactive are those of the source.
Consider the following compounds; for each one, report its IC50.

Ask: Consider the compound Cc1cc2cc(CNS(=O)(=O)c3ccc4ccccc4c3)ccc2n1C and give its measured IC50.
Result: 46.8 µM (active)

Ask: Now give it for COc1cccc(CNC(=O)CSc2ccc(-c3ccccn3)nn2)c1 too.
Result: 20.6 µM (active)

Ask: Now give it for COc1ccc2cc3cc(C(=O)N4CCN(Cc5ccc6c(c5)OCO6)CC4)oc3nc2c1 too.
Result: > 100 µM (active)

Ask: Now give it for Cc1c(N=NC2=C(O)CCCC2=O)c(=O)n(-c2ccccc2)n1C too.
Result: 2.9 µM (active)

Ask: Now give it for COc1ccc(S(=O)(=O)NCc2ccc3c(c2)cc(C)n3C)cc1 too.
Result: 66.3 µM (active)

Ask: Now give it for Oc1ccc(N=Nc2nccs2)c(O)c1 too.
Result: 11.4 µM (active)

Ask: Now give it for O=[N+]([O-])c1ccc(N/N=C2\CC3CC=CC23)c([N+](=O)[O-])c1 (configuration not stated) too.
Result: 35.3 µM (active)

Ask: Now give it for O=C1c2c(O)ccc(O)c2C(=O)c2c(NCCNCCO)ccc(NCCNCCO)c21 too.
Result: 2.05 µM (active)

Ask: Now give it for COCCCNC(=S)NNC(=O)c1ccccn1 too.
Result: 2.32 µM (active)

Ask: Now give it for CCOC(=O)c1sc(NC(=O)CNCc2ccccn2)c(C(=O)OCC)c1C too.
Result: 8.76 µM (active)

Ask: Now give it for c1cnc2c(c1)ccc1cccnc12 too.
Result: 0.902 µM (active)

Ask: Now give it for O=C1C=CC(=C(c2ccc(O)cc2)c2ccc(O)cc2)C=C1 too.
Result: 59.1 µM (active)
